Catalogue of compounds with associated IC50
Target: Trypanothione reductase (Trypanosoma cruzi, UniProt P28593)
Sequence (P28593 whole entry): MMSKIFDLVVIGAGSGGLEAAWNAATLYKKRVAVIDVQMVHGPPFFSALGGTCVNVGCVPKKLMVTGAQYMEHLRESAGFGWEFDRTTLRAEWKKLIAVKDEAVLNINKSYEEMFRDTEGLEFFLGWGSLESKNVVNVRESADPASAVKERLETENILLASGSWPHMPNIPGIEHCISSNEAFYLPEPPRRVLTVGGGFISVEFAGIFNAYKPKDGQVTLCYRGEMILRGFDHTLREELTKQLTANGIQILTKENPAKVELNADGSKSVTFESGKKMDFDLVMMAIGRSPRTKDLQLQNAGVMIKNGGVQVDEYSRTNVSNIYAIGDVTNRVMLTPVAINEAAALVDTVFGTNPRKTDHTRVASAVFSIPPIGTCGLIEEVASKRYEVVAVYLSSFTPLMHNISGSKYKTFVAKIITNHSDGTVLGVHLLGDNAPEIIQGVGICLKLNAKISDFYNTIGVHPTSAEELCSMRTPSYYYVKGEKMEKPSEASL
Assay: Inhibitory activity against Trypanosoma cruzi trypanothione disulfide reductase, assay in presence of 57 uM T(S)2.

Recorded IC50, per entry:
INSERT INTO assay_data (structure_smiles, result) VALUES
  ('CC1=C(CCC(=O)O)C(=O)c2ccccc2C1=O', '> 50 µM'),
  ('CC1=C(N2CCN(CCCN(C)C)CC2)C(=O)c2ccccc2C1=O', '> 57 µM'),
  ('CC1=C(NCCCNCCC/N=C2/C(=O)c3ccccc3C(O)=C2C)C(=O)c2ccccc2C1=O', '9 µM'),
  ('CC1=C(NCCCC/N=C2/C(=O)c3ccccc3C(O)=C2C)C(=O)c2ccccc2C1=O', '> 57 µM');

Now for the compound whose IC50 we want.
Record for "CC1=C(CCCCNC(=O)OC(C)(C)C)C(=O)c2c(O)cccc2C1=O" under target or system Trypanothione reductase (Trypanosoma cruzi, UniProt P28593): IC50 reported as > 25 µM
